The reported measurements were obtained from the supplement of paper PMC9170038.

Tested on: MS2 coat protein
test details: apparent KD of MS2 coat protein; designed switch direction (-1 OFF switch, 1 ON switch): -1; higher = weaker reporter binding
recorded conditions: Eterna round: R95; input ligand: FMN 200 uM
readout: apparent KD of MS2 coat protein (µM)
Answer in µM, number only, no unit symbol.

// returns reported apparent KD of MS2 coat protein for input CUAGCUUCGGCUAGUACAAGCUUUUUGCUCGUCUUAUUAACAUGAGGAUCACCCAUGUACAAGAGACCUCAUGUAUU [Sensor v3 - turn-off variant 2 - 10] (puzzle: Sensor v3, turn-off variant 2)
0.188

Reported apparent KD of MS2 coat protein, sequence GAAUGCAAGUAAAGAUCUUACAUGAGGAUCACCCAUGUGCUCGUCUUAUAAAGUACUAUCACGAAAGUGAUAGUACA [Mat - Sensor v3 - turn-off var 1 - Eli Mod - D90] (puzzle: Sensor v3, turn-off variant 1) : ____
0.0163

Fill in the blank: the reported apparent KD of MS2 coat protein of CCAGGCGUCUUGGCUCGUCUUAUUUGGAGAGGAUUGAUAACAUGAGGAUCACCCAUGUGUGUGGGAGAGUUGCAGUG [JR_SV3TOV2_Sub018] (puzzle: Sensor v3, turn-off variant 2) is ____.
0.335

For the sequence AGUACUAACACGCCUGUGUUAGUACAAUAAGCUUGUGAAACAUGAGGAUCACCCAUGUCCUCAUAAGCUCGUCUUAU [salish99_TOv2_r3_077] (puzzle: Sensor v3, turn-off variant 2) , what apparent KD of MS2 coat protein is on record?
0.0163

Requested field: apparent KD of MS2 coat protein. Item: AAUACUAACACGAAAGUGUUAGUAAAAUAAGCUUGUGGUACAUGAGGAUCACCCAUGUCCUCAUAAGCUCGUCUUAU [Mat - Sensor v3 - Turn-off var 2 - D43] (puzzle: Sensor v3, turn-off variant 2)
0.023

Requested read-out: apparent KD of MS2 coat protein. Entry: GAGUGGCAAGGAUAUACAGAGGAGAGGAAGGCAAGAGGUGGACAUGAGGAUCACCCAUGUAGAAGGUGCAGAGG [JR_Exclu2_Sub025] (puzzle: Exclusion 2)
0.157

Suppose we examine the sequence AGUACUAUGCGUGCUGACAUGCGUAGUGCAGCAGGUGUAACAUGAGGAUCACCCAUGUCCUCAUUUGCUCGUCUUAA [Mat - Sensor v3 - Turn-off var 2 - D13] (puzzle: Sensor v3, turn-off variant 2) ; what apparent KD of MS2 coat protein value has been reported?
0.107

GET /values?readout=apparent KD of MS2 coat protein&item= GAGAAAUUAUAGGAUAUCGAAAGUAUAAUUUAACGAGAAGGAUGAACAUGAGGAUCACCCAUGUGGUAUCAUGG [JL-ex6-3.10] (puzzle: Exclusion 6)
0.283

Bench note: what apparent KD of MS2 coat protein did CCUAGCCUAAAAUCACGCAAGCUUUUUGCUUGUCUUAAGACAUGAGGAUCACCCAUGUCCGGGCUGAACUUAUGGAA [Veorxe] (puzzle: Sensor v3, turn-off variant 2) show?
0.0178
